# TESTED SYSTEM: human recombinant cannabinoid CB2 receptor (Homo sapiens, UniProt P34972)
# Construct: purchased Perkin Elmer Inc., Singapore Pte; Ltd. RBXCB2M400UA; host or cells: HEK293-EBNA cell membranes (overexpressing)
# Sequence (P34972 whole entry): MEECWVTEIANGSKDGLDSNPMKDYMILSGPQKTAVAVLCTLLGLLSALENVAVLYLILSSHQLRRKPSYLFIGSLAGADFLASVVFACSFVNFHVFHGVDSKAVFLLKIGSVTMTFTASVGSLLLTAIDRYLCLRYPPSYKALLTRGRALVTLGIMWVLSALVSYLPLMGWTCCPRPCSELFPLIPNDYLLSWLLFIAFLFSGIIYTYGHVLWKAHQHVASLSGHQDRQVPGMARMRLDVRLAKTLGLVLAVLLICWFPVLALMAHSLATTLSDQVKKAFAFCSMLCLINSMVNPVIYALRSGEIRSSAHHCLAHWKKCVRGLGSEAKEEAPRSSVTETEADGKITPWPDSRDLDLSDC
# ASSAY REMARKS: CB2 radioligand displacement binding assay ([3H]CP-55940)
# RECORDED CONDITIONS: displacement of [3H]CP-55940 at 10 μM compound; read-out: CB2 Max Tested µM (% Displacement)
Returns yes if the recorded inhibition at 10 µM is greater than or equal to 50%, and no otherwise.

Sample answers from the record:
[
  {
    "SMILES REPRESENTATION": "Cc1cc(-c2nc3ccc(Cl)cc3n2C(=O)c2cccc3ccccc23)no1",
    "TESTED SYSTEM": "human recombinant cannabinoid CB2 receptor (Homo sapiens, UniProt P34972)",
    "ANSWER LABEL": "no"
  },
  {
    "SMILES REPRESENTATION": "O=C(c1cccc2ccccc12)n1c(-c2ccco2)nc2ccc(Cl)cc21",
    "TESTED SYSTEM": "human recombinant cannabinoid CB2 receptor (Homo sapiens, UniProt P34972)",
    "ANSWER LABEL": "yes"
  },
  {
    "SMILES REPRESENTATION": "O=C(c1cccc2ccccc12)n1c(-c2ccon2)nc2ccc(F)cc21",
    "TESTED SYSTEM": "human recombinant cannabinoid CB2 receptor (Homo sapiens, UniProt P34972)",
    "ANSWER LABEL": "no"
  },
  {
    "SMILES REPRESENTATION": "O=C(c1cccc2ccccc12)n1c(-c2cccnc2)nc2ccc(Cl)cc21",
    "TESTED SYSTEM": "human recombinant cannabinoid CB2 receptor (Homo sapiens, UniProt P34972)",
    "ANSWER LABEL": "yes"
  },
  {
    "SMILES REPRESENTATION": "Cc1cc(-c2nc3ccc(F)cc3n2C(=O)c2cccc3ccccc23)no1",
    "TESTED SYSTEM": "human recombinant cannabinoid CB2 receptor (Homo sapiens, UniProt P34972)",
    "ANSWER LABEL": "no"
  }
]

Is reported inhibition at 10 µM greater than or equal to 50% here: Cc1ccc(-c2nc3ccc(Cl)cc3n2C(=O)c2cccc3ccccc23)o1
yes

Is reported inhibition at 10 µM greater than or equal to 50% here: COc1cccc(-c2nc3cc(Cl)ccc3n2C(=O)c2cccc3ccccc23)c1
no

Is reported inhibition at 10 µM greater than or equal to 50% here: O=C(c1cccc2ccccc12)n1c(-c2cccnc2)nc2cc(Cl)ccc21
no

* * *

# TESTED SYSTEM: human recombinant cannabinoid CB2 receptor (Homo sapiens)
# Construct: purchased Perkin Elmer Inc., Singapore Pte; Ltd. RBXCB2M400UA; host or cells: HEK293-EBNA cell membranes (overexpressing)
# ASSAY REMARKS: CB2 radioligand displacement binding assay ([3H]CP-55940)
# RECORDED CONDITIONS: displacement of [3H]CP-55940 at 10 μM compound; read-out: CB2 Max Tested µM (% Displacement)
TEST READOUT: inhibition at 10 µM
Give your result as the value with the unit written after it.

[
  {
    "COMPOUND": "Cc1ccc(-c2nc3cc(Cl)ccc3n2C(=O)c2cccc3ccccc23)o1 [Compound 4e]",
    "inhibition at 10 µM": "29%"
  },
  {
    "COMPOUND": "O=C(c1cccc2ccccc12)n1c(-c2ccco2)nc2ccc(F)cc21 [Compound 5f′]",
    "inhibition at 10 µM": "47%"
  },
  {
    "COMPOUND": "O=C(c1cccc2ccccc12)n1c(-c2ccon2)nc2cc(Cl)ccc21 [Compound 4d]",
    "inhibition at 10 µM": "15%"
  },
  {
    "COMPOUND": "COc1cccc(-c2nc3ccc(Cl)cc3n2C(=O)c2cccc3ccccc23)c1 [4b′]",
    "inhibition at 10 µM": "58%"
  }
]

Could you now look at the following compound, please?
Notebook entry, human recombinant cannabinoid CB2 receptor (Homo sapiens) assay: inhibition at 10 µM of Cc1cc(-c2nc3cc(Cl)ccc3n2C(=O)c2cccc3ccccc23)no1 [Compound 4c] = ?
30%

* * *

# TESTED SYSTEM: human cannabinoid CB1 receptor (Homo sapiens)
# Construct: purchased Perkin Elmer Inc., Singapore Pte; Ltd. RBHCB1M400UA; host or cells: HEK293-EBNA cell membranes (overexpressing)
# Sequence (P21554 whole entry): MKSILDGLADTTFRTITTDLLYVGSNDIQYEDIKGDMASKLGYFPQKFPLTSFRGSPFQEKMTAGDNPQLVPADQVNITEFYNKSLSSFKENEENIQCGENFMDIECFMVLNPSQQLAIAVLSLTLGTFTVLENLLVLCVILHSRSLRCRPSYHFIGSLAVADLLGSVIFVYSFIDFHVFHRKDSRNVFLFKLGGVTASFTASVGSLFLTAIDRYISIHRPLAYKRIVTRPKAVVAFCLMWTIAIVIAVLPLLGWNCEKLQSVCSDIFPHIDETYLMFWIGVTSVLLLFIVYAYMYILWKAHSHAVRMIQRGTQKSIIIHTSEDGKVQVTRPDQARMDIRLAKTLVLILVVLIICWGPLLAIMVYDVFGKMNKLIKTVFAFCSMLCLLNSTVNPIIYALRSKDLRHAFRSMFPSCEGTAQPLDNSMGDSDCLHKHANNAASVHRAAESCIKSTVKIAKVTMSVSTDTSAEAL
# ASSAY REMARKS: biochemical
# Format: binding
# RECORDED CONDITIONS: [3H]CP-55940 0.5 nM, hCB1 HEK293-EBNA membranes, mean ± SEM n = 3; read-out: CB1 IC50
pIC50: −log10 of the molar value.
TEST READOUT: pIC50

For orientation, consider the following solved cases.
[
  {
    "SMILES REPRESENTATION": "O=C(c1cccc2ccccc12)n1c(-c2ccon2)nc2ccc(F)cc21",
    "pIC50": "< 5.00"
  },
  {
    "SMILES REPRESENTATION": "Cc1cc(-c2nc3ccc(Cl)cc3n2C(=O)c2cccc3ccccc23)no1",
    "pIC50": "< 5.00"
  },
  {
    "SMILES REPRESENTATION": "Cc1cc(-c2nc3cc(Cl)ccc3n2C(=O)c2cccc3ccccc23)no1",
    "pIC50": "< 5.00"
  }
]

Notebook entry, human cannabinoid CB1 receptor (Homo sapiens) assay: pIC50 of O=C(c1cccc2ccccc12)n1c(-c2ccco2)nc2cc(F)ccc21 = ?
5.22

Notebook entry, human cannabinoid CB1 receptor (Homo sapiens) assay: pIC50 of O=C(c1cccc2ccccc12)n1c(-c2cccnc2)nc2cc(Cl)ccc21 = ?
< 5.00

* * *

# TESTED SYSTEM: human recombinant cannabinoid CB2 receptor (Homo sapiens)
# Construct: purchased Perkin Elmer Inc., Singapore Pte; Ltd. RBXCB2M400UA; host or cells: HEK293-EBNA cell membranes (overexpressing)
# ASSAY REMARKS: CB2 radioligand displacement binding assay ([3H]CP-55940)
# RECORDED CONDITIONS: [3H]CP-55940 0.5 nM, hCB2 HEK293-EBNA membranes, mean ± SEM n = 3
pIC50: −log10 of the molar value.
# pIC50 annotations

For orientation, consider the following solved cases.
[
  {
    "COMPOUND": "Cc1ccc(-c2nc3ccc(Cl)cc3n2C(=O)c2cccc3ccccc23)o1 [4e′]",
    "RECORDED VALUE": "< 5.00"
  },
  {
    "COMPOUND": "O=C(c1cccc2ccccc12)n1c(-c2ccon2)nc2cc(F)ccc21 [Compound 5d]",
    "RECORDED VALUE": "< 5.00"
  },
  {
    "COMPOUND": "O=C(c1cccc2ccccc12)n1c(-c2ccco2)nc2ccc(Cl)cc21 [Compound 4f′]",
    "RECORDED VALUE": "< 5.00"
  },
  {
    "COMPOUND": "COc1cccc(-c2nc3ccc(F)cc3n2C(=O)c2cccc3ccccc23)c1 [5b′]",
    "RECORDED VALUE": "< 5.00"
  },
  {
    "COMPOUND": "O=C(c1cccc2ccccc12)n1c(-c2ccon2)nc2ccc(Cl)cc21 [4d′]",
    "RECORDED VALUE": "< 5.00"
  }
]

For the compound O=C(c1cccc2ccccc12)n1c(-c2cccnc2)nc2ccc(F)cc21 [5a′] , what pIC50 is on record?
< 5.00

For the compound O=C(c1cccc2ccccc12)n1c(-c2cccnc2)nc2cc(F)ccc21 [Compound 5a] , what pIC50 is on record?
< 5.00

For the compound COc1cccc(-c2nc3ccc(Cl)cc3n2C(=O)c2cccc3ccccc23)c1 [4b′] , what pIC50 is on record?
5.17

For the compound O=C(c1cccc2ccccc12)n1c(-c2ccon2)nc2ccc(F)cc21 [5d′] , what pIC50 is on record?
< 5.00

* * *

# pIC50 annotations
# Tested on: U87MG cells
# ASSAY REMARKS: cells
# RECORDED CONDITIONS: Homo sapiens, U-87 MG, 72 h, read-out: IC50 toxicity U87MG, MTT, 72 h
Here pIC50 is given on a logarithmic scale as minus log10 of the concentration in mol/L.

[
  {
    "COMPOUND": "O=C(c1cccc2ccccc12)n1c(-c2ccco2)nc2ccc(F)cc21 [Compound 5f′]",
    "pIC50": 7.05
  }
]

Could you now look at the following compound, please?
For the compound Cc1c(C(=O)c2cccc3ccccc23)c2cccc3c2n1C(CN1CCOCC1)CO3 (centres unmarked) [WIN-55212-2, reference compound] , what pIC50 is on record?
6.70
